Tested on: LOX IMVI melanoma
Assay: NCI-60 one-dose screen, 48 h (100 = growth as untreated, 0 = no growth, -100 = all killed)
Conditions: 10 µM
The panel holds about 83,000 compounds, 20% with a hit somewhere; the sample as a whole holds those more often.
observable: growth (%)
Hi! Could you send only the number? It should be in %, unit omitted.

Field: example entries. Status: answers known.
compound: N#Cc1c(NCc2ccccc2)n[nH]c1Nc1ccccc1
growth [%]: 58.4

compound: CC1[C@H]2[C@H](C[C@H]3[C@@H]4CC=C5c6sc(Nc7ccccc7F)nc6CC[C@]5(C)[C@H]4CC[C@@]32C)O[C@]12CC[C@@H](C)CO2 (some centres undefined)
growth [%]: -90.4

compound: CC1(C)CC[C@]2(C(=O)O)CC[C@]3(C)C(=CCC4[C@@]5(C)C[C@@H](O)[C@@H]6OC(c7ccccc7F)OC[C@@]6(C)C5CC[C@]43C)C2C1 (some centres undefined)
growth [%]: -1.57

compound: O=C(NN1C(=O)/C(=C/C=C/c2ccc([N+](=O)[O-])o2)SC1=S)c1cccc(O)c1
growth [%]: -93.5

The reported value for Cc1ccccc1[C@H]1C(C(=O)c2ccc(Cl)cc2)C2(N[C@@H]1c1ccccc1)C(=O)Nc1ccc(Br)cc12 (some centres undefined) in terms of growth is -95.3

The reported value for CC(C)(C)OC(=O)/C=C/c1cccc2c1C(=O)NC(C)(c1cc3cc(Cl)ccc3oc1=O)N2 (centres undefined) in terms of growth is 41.1

The reported value for `CC(C)CSc1nc(NCCc2c[nH]c3ccccc23)c(C#N)c(-c2ccccc2)n1` in terms of growth is 33.3

The reported value for COc1ccc(NC(=O)[C@H](C)N)cc1C(=O)Nc1cccc(C2CC(=O)c3c(cc(OC)c(OC)c3OC)O2)c1 (some centres undefined) in terms of growth is 89.2

====

Each entry below carries its recorded growth.
System: UACC-257 melanoma
Assay: NCI-60 one-dose screen, 48 h (100 = growth as untreated, 0 = no growth, -100 = all killed)
Conditions: 10 µM unless noted
This is part of a sample that, as a whole, favours compounds with a hit. Of some 83,000 tested, about 20% had one in any assay.
Hi! Could you send only the number? It should be in %, unit omitted.

compound: CC12CC[C@@H]3[C@]4(C)COC(c5cn[nH]c5-c5cccc(Cl)c5)O[C@@H]4CC[C@@]3(C)[C@@H]1CC(C1=CCOC1=O)O2 (stereo not given in full)
growth (%): 43.3
//
compound: Cc1cc2c(cc1Cl)C(=O)/C(=C/c1ccc(F)cc1)O2
growth (%): 106

The reported value for COc1c(F)ccc(C(=O)Nc2ccc3nc(NC(=O)C4CCCN(S(=O)(=O)C5CC5)C4)sc3c2)c1F (stereo not given) in terms of growth is 20.9

The reported value for CN(C)c1nc(NCCNS(=O)(=O)c2ccc(C3=Nc4c(N)nc(N)nc4NC(c4ccc(F)cc4)C3)cc2)nc(Nc2ccc(F)cc2)n1 (stereo not given) in terms of growth is 59.3

The reported value for `COc1ccc(/C=N/NC(=O)Cn2nc(Cc3ccc(OC)cc3)c3onc(C)c3c2=O)cc1` in terms of growth is 77

====

System: HOP-92 NSCLC
Assay: NCI-60 one-dose screen, 48 h (100 = growth as untreated, 0 = no growth, -100 = all killed)
Conditions: 10 µM unless noted
Procedure: Growth inhibition of the HOP-92 human Non-Small Cell Lung tumor cell line is measured as a screen for anti-cancer activity. Cells are grown in 96 well plates and exposed to the test compound for 48 hours. Compounds are tested at a single concentration, which is 10^-5 M for most compounds. The reported endpoint is percent growth (GI% or GIPRCNT), where numbers from 0 - 100% represent growth inhibition, and numbers from -100% - 0 represent cell death. […]
This is part of a sample that, as a whole, favours compounds with a hit. Of some 83,000 tested, about 20% had one in any assay.
Please note: Criterion met applies when growth is 60% or greater, and Criterion not met applies otherwise.

Solved entries:
compound: O=C1C(=Nc2ccc(F)c(Cl)c2)c2cccc3cccc1c23
category: Criterion met

compound: CC1(C)CC[C@]2(C(=O)O)CC[C@]3(C)C(=CCC4[C@@]5(C)C[C@@H](O)[C@@H]6OC(c7ccco7)OC[C@@]6(C)C5CC[C@]43C)C2C1 (stereo partly specified)
category: Criterion not met

compound: C[C@H]1CN(C(=O)c2ccc3c(NNC(=O)c4ccncn4)nc4cc(F)c(F)cc4n23)CCN1
category: Criterion met

compound: Cc1cc(=O)oc2cc(OCCCCOc3ccc(/C=C/C(=O)Nc4ccccc4N)cc3)ccc12
category: Criterion met

compound: COc1ccc(C2=NN(C(C)=O)C(c3ccc(OCc4ccc(Cl)cc4)c(OC)c3)C2)cc1OC (stereo unspecified)
category: Criterion not met

compound: CC(=O)Oc1ccccc1C(=O)[Se]CC(=O)Nc1cccc(C(F)(F)F)c1
category: Criterion not met

compound: CCOC(=O)/C=C/c1cccc2c1C(=O)NC(C)(c1cc3cc(Br)ccc3oc1=O)N2 (stereo unspecified)
category: Criterion not met

compound: COc1ccccc1/C=C/C(=O)c1ccc(OC)c(S(N)(=O)=O)c1
category: Criterion not met

Evaluate COc1cc2c(c(OC)c1OC)C(=O)CC(c1cccc(NC(=O)c3cc([N+](=O)[O-])ccc3Cl)c1)O2 (stereo unspecified) : growth at minimum 60%?
Criterion not met

Evaluate `COc1ccc(-c2nc(SCC(C)C)nc(NCCc3c[nH]c4ccccc34)c2C#N)cc1` : growth at minimum 60%?
Criterion not met

Evaluate CC(=O)OC[C@@]1(C)C2CC[C@]3(C)C(CC=C4C5CC(C)(C)CC[C@]5(C(=O)Nc5ccc(C)cc5)CC[C@]43C)[C@@]2(C)C[C@@H](OC(C)=O)[C@@H]1OC(C)=O (stereo partly specified) : growth at minimum 60%?
Criterion not met

====

Each entry below carries its recorded growth.
Tested on: SF-295 CNS
Test: NCI-60 one-dose screen, 48 h (100 = growth as untreated, 0 = no growth, -100 = all killed)
Details: 10 µM unless noted
About 83,000 compounds went through this panel and 20% of them were active in at least one assay; those are over-represented in the sample as a whole. The source made the active and inactive calls. The calls were made as follows: active = growth percent below 10; inactive = the rest.

The reported value for Cc1ccc(NC(=O)[C@]23CCC(C)(C)CC2C2=CCC4[C@@]5(C)C[C@@H](O)[C@H](O)[C@@](C)(CO)C5CC[C@@]4(C)[C@]2(C)CC3)cc1 (some centres not stated) in terms of growth is 21.8% (inactive)

The reported value for `CC(=O)Nc1ccc(-n2cnc3cc(-c4ccc(O)cc4)ccc32)cc1C(F)(F)F` in terms of growth is -13.7% (active)

The reported value for `Cc1ccc(NC(=O)CN2CCN(c3ncnc4c3cnn4-c3ccccc3)CC2)cc1` in terms of growth is 116% (inactive)

The reported value for CN(C)c1nc(NCCNS(=O)(=O)c2ccc(C3=Nc4c(N)nc(N)nc4NC(c4ccc(F)cc4)C3)cc2)nc(Nc2ccc(F)cc2)n1 (configuration not stated) in terms of growth is 57.3% (inactive)

The reported value for `COc1ccc(Cc2nn(CC(=O)N/N=C/c3ccc(F)cc3)c(=O)c3c(C)noc23)cc1` in terms of growth is -19.3% (active)

The reported value for `COc1cc(CNC(=O)/C=C/c2ccc3c(c2)OCO3)ccc1OCc1cn(-c2ccc([N+](=O)[O-])cc2)nn1` in terms of growth is 88% (inactive)

The reported value for `Clc1cccc(-c2ccc(OCCCN3CCN(c4ccncc4)CC3)cc2)c1` in terms of growth is -80.8% (active)

The reported value for COC(=O)/C=C/c1cccc2c1C(=O)NC(C)(c1cc3ccccc3oc1=O)N2 (configuration not stated) in terms of growth is 84.9% (inactive)

The reported value for C=C1CC[C@@H]2[C@]3(C)COC(c4cn[nH]c4-c4ccccc4)O[C@@H]3CC[C@@]2(C)[C@@H]1C/C=C1/C(=O)OCC1O (some centres not stated) in terms of growth is 50.2% (inactive)

====

Tested on: HT29 colon
Assay: NCI-60 one-dose screen, 48 h (100 = growth as untreated, 0 = no growth, -100 = all killed)
Conditions: 10 µM unless noted
Compounds without any hit were thinned out: in the full panel of roughly 83,000, 20% have a hit.
observable: growth (%)
Hi! Could you send only the number? It should be in %, unit omitted.

compound: COc1cc2oc(-c3cccc(C(=O)Nc4cccc([N+](=O)[O-])c4)c3)cc(=O)c2c(OC)c1OC
observable: growth
experimental.value: 59.9
//
compound: NS(=O)(=O)c1ccc(CCNC(=O)CSc2ccc(-c3ccc(Br)cc3)nn2)cc1
observable: growth
experimental.value: 82.6
//
compound: C#CCOc1cc(N(CC)CC)ccc1C(C(=O)NC(C)(C)C)N(C(=O)C1CCc2cc(F)ccc2O1)c1cc(C)cc(C)c1 (stereo unspecified)
observable: growth
experimental.value: 40.4
//
compound: CCOC(=O)c1ccc(Nc2nc(NN)nc(-c3ccc(F)cc3)c2C#N)cc1
observable: growth
experimental.value: 97.6
//
compound: COc1ccc2[nH]cc(-c3nnc(N)nc3-c3cn(C)c4ncc(Br)cc34)c2c1
observable: growth
experimental.value: 82.6

The reported value for `O=C(CSc1nc2ccccc2c(=O)[nH]1)NCCN1CCCCC1` in terms of growth is 108
